# Test system: MOLT-4 leukemia
# TEST: NCI-60 one-dose screen, 48 h (100 = growth as untreated, 0 = no growth, -100 = all killed)
# MEASUREMENT_PARAMETERS: 10 µM unless noted
The panel holds about 83,000 compounds, 20% with a hit somewhere; the sample as a whole holds those more often.
Give growth for every item shown.
Just the number please, in %, no unit attached.

stdin: Param item = CC(=O)[C@H]1CC[C@H]2[C@@H]3CC[C@H]4C[C@H](N)CC[C@]4(C)[C@H]3CC[C@]12C ; retrieve measured growth.
stdout: 61.7

stdin: Same thing, different compound: CC(C)=CCC[C@H](C(=O)O)[C@@H]1CC[C@]2(C)C3=C(CC[C@@]12C)[C@@]1(C)CC[C@H](O)C(C)(C)[C@@H]1CC3
stdout: 88.6

stdin: Same thing, different compound: Clc1ccc(CSC(Cn2ccnc2)c2ccc(Cl)cc2Cl)cc1 (configuration not stated)
stdout: 1.87

stdin: Same thing, different compound: Cc1cc(-c2nc3cc(F)ccc3[se]2)cc(F)c1N
stdout: 83.6

stdin: Same thing, different compound: COc1cc(/C=C\c2cc(OC)c(OC)c(OC)c2)cc(N/C=C\C(=O)c2cc(OC)c(OC)c(OC)c2)c1OC
stdout: 28.7

stdin: Same thing, different compound: COC(=O)[C@@H](C)C[C@H](Cc1ccccc1)NC(=O)c1csc([C@@H](C[C@H](C(C)C)N(C)C(=O)[C@@H](NC(=O)[C@H]2CCCCN2C)C2CC2)OC(C)=O)n1
stdout: 15.3

stdin: Same thing, different compound: CC(=O)O[C@H](C[C@H](C(C)C)N(C)C(=O)[C@@H](NC(=O)[C@H]1CCCCN1C)C(C)C)c1cccc(C(=O)N[C@@H](Cc2ccccc2)C[C@H](C)C(=O)O)n1
stdout: 9.11

###

# Test system: SK-MEL-2 melanoma
# TEST: NCI-60 one-dose screen, 48 h (100 = growth as untreated, 0 = no growth, -100 = all killed)
# MEASUREMENT_PARAMETERS: 10 µM unless noted
This is part of a sample that, as a whole, favours compounds with a hit. Of some 83,000 tested, about 20% had one in any assay.
Kindly apply the following: yes if growth is less than 90%, no in every other case.

stdin: Hello, I'm reviewing records and need to know if growth of CN[C@]1(c2ccccc2Cl)CCCC[C@H]1NCCCN1CCN(C)CC1 is below 90%. Could you check?
stdout: no

stdin: Same thing, different compound: CC[C@H](C)[C@H](NC(=O)C12CC(NC(C)=O)(C1)C2)C(=O)N(C)[C@H](C[C@@H](OC(C)=O)c1nc(C(=O)N[C@@H](Cc2ccccc2)C[C@H](C)C(=O)OC)cs1)C(C)C
stdout: yes

stdin: Same thing, different compound: CN1C(=O)C(=Cc2cn(CCCCCCn3c4ccccc4c(=O)c4ccccc43)c3ccccc23)C(=O)N(C)C1=O
stdout: no

stdin: Same thing, different compound: O=P(Oc1ccc(Cl)cc1)(N1CC1)N1CC1
stdout: no

stdin: Same thing, different compound: COc1ccc2c(c1)c(-c1nc(-c3cn(C)c4ncccc34)cs1)cn2CCN1CCOCC1
stdout: yes

stdin: Same thing, different compound: CC1(C)CN1P(=O)(N1CC1(C)C)N1CC1(C)C (centres undefined)
stdout: no

stdin: Same thing, different compound: Fc1c[c-]c(-c2ccccn2)c(F)c1.[CH3-].[Pt+2].c1ccc([PH+](c2ccccc2)c2ccccn2)cc1
stdout: yes

stdin: Same thing, different compound: Cc1cc(-c2nc3cc(F)ccc3[se]2)cc(F)c1N
stdout: no

stdin: Same thing, different compound: CCOc1ccccc1C(=O)OCC(Cl)(Cl)Cl
stdout: no
